System: HepG2
procedure.details: cytotoxicity call (relative viability < 0.9)
condition.set: 10 µM
Screen size: about 39,000 compounds; about 3,300 (8.5%) were called active. The entries come from a sample that favours actives as a whole.
Thanks in advance; please answer with one of these: yes (1) (active), no (0) (inactive)

A selection of reference data follows.
compound: COc1cc2c(cc1OC)CN(C(=O)[C@H]1[C@@H]3C(=O)O[C@@H](c4ccccc4)[C@@H](c4ccccc4)N3[C@@H](c3ccccc3OCCO)[C@]13C(=O)Nc1ccc(C#CC4=CCCCC4)cc13)CC2
group: no (0)
//
compound: COc1ccc(C#Cc2ccc3c(c2)O[C@H](CN(C)S(=O)(=O)c2ccccc2F)[C@@H](C)CN([C@@H](C)CO)S3(=O)=O)cc1
group: no (0)

Query block: Query: recorded result category for `COc1ccccc1S(=O)(=O)N1C[C@@H](O)COC[C@@H]2O[C@@H](CC(=O)O)CC[C@H]21` in this test
Result block: no (0)

Query block: Which result was noted for this compound in the test: `NC(=O)[C@H]1[C@@H]2C(=O)O[C@@H](c3ccccc3)[C@@H](c3ccccc3)N2[C@@H](c2ccccc2OCCO)[C@]12C(=O)Nc1ccc(C#CC3=CCCCC3)cc12`
Result block: yes (1)

Query block: Identify the outcome logged in this assay for the compound shown: CC1(C)SC2C(NC(=O)C(C(=O)[O-])c3ccccc3)C(=O)N2C1C(=O)[O-].[Na+].[Na+] (stereo not drawn)
Result block: no (0)

Query block: Identify the outcome logged in this assay for the compound shown: `C[C@@H]1CCCCO[C@@H](CN(C)Cc2ccc(C(=O)O)cc2)[C@H](C)CN([C@H](C)CO)C(=O)c2cc(NC(=O)Nc3ccc4c(c3)OCO4)ccc2O1`
Result block: no (0)

Query block: Called result for `CCO[C@@H]1OC(C(=O)N2CCCCCCC2)=C[C@H](c2coc3ccccc3c2=O)[C@H]1CCCOC(=O)NCCCCCC(=O)NO`
Result block: no (0)

Query block: # fetch the recorded call for `CCc1oc(CC[C@@H](CO)NC(=O)NCCn2cc(C3(O)CCCCC3)nn2)c(C(=O)OC)c1C(=O)OC` here
Result block: no (0)

Query block: Test call, this compound: `COc1cccn(CC(=O)N2CCO[C@@H](CCN)C2)c1=O`
Result block: no (0)

Query block: Write down the call the test reported for this compound. Item: `O=C1O[C@@H](c2ccccc2)[C@@H](c2ccccc2)N2[C@@H](c3ccccc3OCCO)[C@]3(C(=O)Nc4ccc(C#CC5(O)CCCCCC5)cc43)[C@@H](C(=O)O)[C@H]12`
Result block: no (0)

Query block: Please indicate how the test categorized `COc1cc2c(cc1OC)CN(C(=O)[C@@H]1[C@H]3C(=O)O[C@H](c4ccccc4)[C@H](c4ccccc4)N3[C@H](c3ccc(O)cc3)[C@@]13C(=O)Nc1ccc(C#CC4(O)CCCCCC4)cc13)CC2` .
Result block: no (0)

Query block: Fill in: this test's call for `O=C1O[C@@H](c2ccccc2)[C@@H](c2ccccc2)N2[C@@H](c3ccccc3OCCO)[C@]3(C(=O)Nc4ccc(C#CC5=CCCCC5)cc43)[C@@H](C(=O)N3CCCCCCC3)[C@H]12` is ___
Result block: yes (1)

Query block: Could you please tell me the result logged for `NC(=O)NCC#Cc1ccc2c(c1)[C@]1(C(=O)N2)[C@H](C(N)=O)[C@H]2C(=O)O[C@H](c3ccccc3)[C@H](c3ccccc3)N2[C@@H]1c1ccccc1OCCO` in this assay?
Result block: no (0)

----------
System: HepG2
procedure.details: cytotoxicity call (relative viability < 0.9)
condition.set: 10 µM
The whole screen tested about 39,000 compounds, of which about 3,300 (8.5%) were called active. This is one part of a sample in which actives are shown more often than they occur.
Your answer must be one of the following: active, inactive

compound: COCC1=C(C(=O)OC(C)OC(=O)OC(C)C)N2C(=O)C(NC(=O)C(=NOC)c3csc(N)n3)C2SC1 (configuration not stated)
group: inactive

Query block: For `COc1ccc(NC(=O)N(C)C[C@H]2Oc3ccc(NC(=O)CCCCCC(=O)Nc4ccccc4N)cc3C(=O)N([C@@H](C)CO)C[C@H]2C)cc1` , what call appears in the results of this test?
Result block: inactive

Query block: I would be grateful if you could indicate the recorded call for `C[C@H]1CN([C@@H](C)CO)C(=O)c2cc(NC(=O)CCCCCC(=O)Nc3ccccc3N)ccc2O[C@@H]1CN(C)C(=O)Nc1ccc(C(F)(F)F)cc1` .
Result block: inactive

Query block: // param item: `COc1ccc(NC(=O)N(C)C[C@@H]2Oc3ccc(NC(=O)Cn4cnnn4)cc3C(=O)N([C@@H](C)CO)C[C@@H]2C)cc1` ; yields the recorded call
Result block: inactive

Query block: Identify the outcome logged in this assay for the compound shown: `C[C@H](CO)N1C[C@H](C)[C@@H](CN(C)C(=O)Nc2ccc(C(F)(F)F)cc2)Oc2ccc(NC(=O)CCCCCC(=O)Nc3ccccc3N)cc2C1=O`
Result block: inactive

Query block: What did this assay record as the result for `C[C@H](CO)N1C[C@H](C)[C@H](CN(C)C(=O)Nc2ccc(C(F)(F)F)cc2)Oc2ccc(NC(=O)CCCCCC(=O)Nc3ccccc3N)cc2C1=O` ?
Result block: active

Query block: Lab log entry: `C[C@@H]1CN([C@H](C)CO)C(=O)c2cc(NC(=O)CCCCCC(=O)Nc3ccccc3N)ccc2O[C@H]1CN(C)C(=O)Nc1ccc(C(F)(F)F)cc1` — outcome as called in the assay?
Result block: inactive

----------
Tested on: HepG2
procedure.details: cytotoxicity call (relative viability < 0.9)
condition.set: 10 µM
Among all 39,000 compounds or so, about 3,300 (8.5%) were called active. Many of the other results were omitted from the sample, so actives are more common in it than they were.
Permitted responses: y (active), n (inactive)

smiles.representation: C[C@@H]1CCCCO[C@@H](CN(C)C(=O)Cc2ccccc2)[C@@H](C)CN([C@H](C)CO)C(=O)c2cc(NC(=O)Nc3ccc(F)cc3)ccc2O1
group: n

smiles.representation: C[C@@H]1CCCCO[C@H](CN(C)C(=O)Nc2ccc(F)cc2)[C@@H](C)CN([C@@H](C)CO)C(=O)c2cc(NC(=O)NC3CCCCC3)ccc2O1
group: n

smiles.representation: O=C(N/N=C/[C@H](O)[C@@H](O)[C@@H](O)[C@H](O)CO)c1ccccn1
group: n

smiles.representation: C[C@@H]1CCCCO[C@H](CN(C)C(=O)Cc2ccccc2)[C@@H](C)CN([C@H](C)CO)C(=O)c2cc(NC(=O)Nc3ccc(F)cc3)ccc2O1
group: n

smiles.representation: COc1cc2ccc(=O)oc2c(O[C@H]2O[C@@H](CO)[C@@H](O)[C@@H](O)[C@@H]2O)c1O
group: n

Query block: Can you look up the reported call for `C[C@@H]1CCCCO[C@H](CN(C)C(=O)Nc2ccc(F)cc2)[C@@H](C)CN([C@@H](C)CO)C(=O)c2cc(NC(=O)Cc3ccccc3)ccc2O1` for me?
Result block: n

Query block: Outcome? `C[C@H](CO)N1C[C@H](C)[C@H](CN(C)C(=O)Cc2ccccc2)OCCCC[C@H](C)Oc2ccc(NC(=O)Nc3ccc4c(c3)OCO4)cc2C1=O`
Result block: y

Query block: Please state the recorded outcome for this compound: `C[C@H]1CN([C@@H](C)CO)C(=O)Cc2cc(NC(=O)Nc3ccc(C(F)(F)F)cc3)ccc2O[C@H]1CN(C)Cc1ccncc1`
Result block: y

Query block: Assay result, entry `C[C@@H]1CN([C@@H](C)CO)C(=O)Cc2cc(NC(=O)Nc3ccc(C(F)(F)F)cc3)ccc2O[C@@H]1CN(C)Cc1ccncc1` — outcome?
Result block: y

Query block: So what was the verdict on `C[C@H](CO)N1C[C@H](C)[C@@H](CN(C)Cc2ccc(C(=O)Nc3ccccc3N)cc2)Oc2c(NC(=O)Nc3ccc4c(c3)OCO4)cccc2C1=O` in this test?
Result block: n

Query block: Could you check what this test reported for `C[C@@H]1CN([C@@H](C)CO)S(=O)(=O)c2ccc(-c3cncnc3)cc2O[C@@H]1CN(C)C(=O)Cc1ccncc1` ?
Result block: n

----------
Tested on: HepG2
procedure.details: cytotoxicity call (relative viability < 0.9)
condition.set: 10 µM
Among all 39,000 compounds or so, about 3,300 (8.5%) were called active. This excerpt belongs to a sample that is enriched for actives.
Respond only with the outcome that fits, drawn from 1 (yes) = active, 0 (no) = inactive

smiles.representation: COc1cc(C=CC(=O)N2CCC=CC2=O)cc(OC)c1OC
target.or.system: HepG2
group: 1 (yes)

smiles.representation: C[C@H]1CCCCO[C@@H](CN(C)CC2CCCCC2)[C@@H](C)CN([C@@H](C)CO)C(=O)c2cc(NC(=O)c3ccccc3)ccc2O1
target.or.system: HepG2
group: 0 (no)

smiles.representation: O=C(C[C@@H]1C[C@H]2c3cc(NC(=O)c4ccc5c(c4)OCO5)ccc3O[C@H]2[C@@H](CO)O1)NCc1ccccn1
target.or.system: HepG2
group: 0 (no)

Query block: Per the assay record, what outcome was assigned to `C[C@H](CO)N1C[C@H](C)[C@H](CN(C)Cc2ccc(Cl)c(Cl)c2)OCCCC[C@H](C)Oc2ccc(NC(=O)Nc3ccc(F)cc3)cc2C1=O` ?
Result block: 1 (yes)

Query block: Short answer needed: outcome of this test for `c1n[nH]cc1-c1cn[nH]c1` ?
Result block: 0 (no)

Query block: How did this test come out for `C[C@@H]1CN([C@H](C)CO)S(=O)(=O)c2ccc(C#Cc3ccccc3F)cc2O[C@@H]1CN(C)CC1CCOCC1` ?
Result block: 0 (no)

Query block: Any idea what this test logged for `C[C@@H]1CN([C@H](C)CO)C(=O)c2cc(NC(=O)Nc3ccc(F)cc3)ccc2O[C@@H](C)CCCCO[C@@H]1CN(C)Cc1ccc(Cl)c(Cl)c1` ?
Result block: 0 (no)

Query block: How was `Cc1nc(COP(=O)(O)O)cc2c1[O][Mn][O]c1c(cc(COP(=O)(O)O)nc1C)CN(CC(=O)O)CCN(CC(=O)O)C2` classified in this test?
Result block: 0 (no)

Query block: Just curious, what result did `COc1cc(C=CC(=O)O)cc(OC)c1OC` get here?
Result block: 0 (no)

Query block: Test call, this compound: `Cc1noc(C)c1NC(=O)Nc1ccc2c(c1)CC(=O)N([C@@H](C)CO)C[C@H](C)[C@H](CN(C)C(=O)Nc1cccc3ccccc13)O2`
Result block: 0 (no)
